molecular target: acetylcholine receptor; assay: SPR, receptor immobilized on CM5 chip, peptide 10 uM
measured quantity: Binding affinity (RU)

>  <binder>
RKRVLK [6mer-1-275]

>  <measured quantity>
Binding affinity (RU)

>  <observed measurement>
123

$$$$
>  <binder>
KSVTKR [6mer-2-456]

>  <measured quantity>
Binding affinity (RU)

>  <observed measurement>
147

$$$$
>  <binder>
KKSRQK [6mer-1-312]

>  <measured quantity>
Binding affinity (RU)

>  <observed measurement>
151

$$$$
>  <binder>
RRWQQK [6mer-1-300]

>  <measured quantity>
Binding affinity (RU)

>  <observed measurement>
148

$$$$
>  <binder>
RRRILR [6mer-1-314]

>  <measured quantity>
Binding affinity (RU)

>  <observed measurement>
141

$$$$
>  <binder>
KGLYKR [6mer-2-452]

>  <measured quantity>
Binding affinity (RU)

>  <observed measurement>
146

$$$$
>  <binder>
KKGICK [6mer-1-309]

>  <measured quantity>
Binding affinity (RU)

>  <observed measurement>
153

$$$$
>  <binder>
KQICKR [6mer-2-462]

>  <measured quantity>
Binding affinity (RU)

>  <observed measurement>
145

$$$$
